one-hybrid fitness for binding parS DNA values, listed per item
B1: Caulobacter ParB omega fusion; a variant is named by its letters at X, in order, B8GW30 (parent)
chain: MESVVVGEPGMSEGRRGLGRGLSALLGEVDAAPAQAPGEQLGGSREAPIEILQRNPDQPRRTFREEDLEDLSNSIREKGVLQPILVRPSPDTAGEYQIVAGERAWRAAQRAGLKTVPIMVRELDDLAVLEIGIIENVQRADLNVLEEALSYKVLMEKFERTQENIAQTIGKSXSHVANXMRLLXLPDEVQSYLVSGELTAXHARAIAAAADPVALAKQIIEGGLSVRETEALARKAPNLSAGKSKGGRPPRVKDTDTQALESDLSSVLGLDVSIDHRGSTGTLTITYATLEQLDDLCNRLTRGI

Variants of: B1
Assay: one-hybrid fitness for binding parS DNA (scaled: cognate 1, non-cognate 0); higher = stronger binding
Details: with parS DNA site
Whole data set: some 81,000 sequences, median “one-hybrid fitness for binding parS DNA” near -0.17, cut for the highest 2% near 0.51. This is one part of a sample in which the highest values are shown more often than they occur.

| mutations | one-hybrid fitness for binding parS DNA |
| --- | --- |
| RIPF | ≤ 0.2 |
| RLLS | 1.05 |
| LCPA | ≤ 0.2 |
| RQEP | ≤ 0.2 |
| VAYM | ≤ 0.2 |

Request: Dear colleague, I am looking for the recorded one-hybrid fitness for binding parS DNA of the following variant: `RQEK`
Result: ≤ 0.2

Request: Dear colleague, I am looking for the recorded one-hybrid fitness for binding parS DNA of the following variant: `RLGD`
Result: ≤ 0.2

Request: Dear colleague, I am looking for the recorded one-hybrid fitness for binding parS DNA of the following variant: `DFNL`
Result: ≤ 0.2

Request: Dear colleague, I am looking for the recorded one-hybrid fitness for binding parS DNA of the following variant: `NHYR`
Result: ≤ 0.2

Request: Dear colleague, I am looking for the recorded one-hybrid fitness for binding parS DNA of the following variant: `RQEG`
Result: 0.89

Request: Dear colleague, I am looking for the recorded one-hybrid fitness for binding parS DNA of the following variant: `SLKT`
Result: ≤ 0.2

Request: Dear colleague, I am looking for the recorded one-hybrid fitness for binding parS DNA of the following variant: `RLLN`
Result: 0.44

Request: Dear colleague, I am looking for the recorded one-hybrid fitness for binding parS DNA of the following variant: `RLYS`
Result: 1.04

Hello, the source for this data is a collection of fitness landscapes (doi:10.1016/j.celrep.2020.107928), in case you need it.
